Recorded Avg % Edit for the following molecules
test system: TTR; assay: TTR editing in primary human hepatocytes transfected with Spy Cas9 mRNA and sgRNAs (Table 13); format: cell-based; conditions: primary human hepatocytes co-transfected with Spy Cas9 mRNA (SEQ ID NO:2) and sgRNAs, 12.5 nM
Strand notation (5' to 3'): a small letter for the sugar, then the base; units joined by * are phosphorothioate-linked, units joined directly phosphodiester-linked; [ ] holds rarer units or linkages, { } end groups; capitals alone tell only the bases. m = 2'-O-methyl; r = 2'-OH (RNA)
readout: Avg % Edit (%)

[
  {
    "molecule": "G000483: TTR sgRNA modified sequence, Human, SEQ ID No. 90; guide sequence of CR005298 (nucleic acid) guide: mU*mC*mC*rArCrUrCrArUrUrCrUrUrGrGrCrArGrGrArGrUrUrUrUrArGrAmGmCmUmAmGmAmAmAmUmAmGmCrArArGrUrUrArArArArUrArArGrGrCrUrArGrUrCrCrGrUrUrArUrCrAmAmCmUmUmGmAmAmAmAmAmGmUmGmGmCmAmCmCmGmAmGmUmCmGmGmUmGmCmU*mU*mU*mU",
    "unitsLabel": "%",
    "testResult": 27.82
  },
  {
    "molecule": "G000567: TTR sgRNA modified sequence, Human, SEQ ID No. 109; guide sequence of CR003352 (nucleic acid) guide: mG*mA*mA*rArGrGrCrUrGrCrUrGrArUrGrArCrArCrCrGrUrUrUrUrArGrAmGmCmUmAmGmAmAmAmUmAmGmCrArArGrUrUrArArArArUrArArGrGrCrUrArGrUrCrCrGrUrUrArUrCrAmAmCmUmUmGmAmAmAmAmAmGmUmGmGmCmAmCmCmGmAmGmUmCmGmGmUmGmCmU*mU*mU*mU",
    "unitsLabel": "%",
    "testResult": 27.28
  },
  {
    "molecule": "G000571: TTR sgRNA modified sequence, Human, SEQ ID No. 112; guide sequence of CR005301 (nucleic acid) guide: mG*mU*mC*rArCrArGrArArArCrArCrUrCrArCrCrGrUrGrUrUrUrUrArGrAmGmCmUmAmGmAmAmAmUmAmGmCrArArGrUrUrArArArArUrArArGrGrCrUrArGrUrCrCrGrUrUrArUrCrAmAmCmUmUmGmAmAmAmAmAmGmUmGmGmCmAmCmCmGmAmGmUmCmGmGmUmGmCmU*mU*mU*mU",
    "unitsLabel": "%",
    "testResult": 20.47
  }
]
